Form field: Percent Effect (one value per entry).
PROTOCOL DETAILS: In vitro enzyme assay to detect hydrolysis of chlorophenol red-beta-D-[…] directly proportional to the number of Toxoplasma stably expressing beta-galactosidase
Format: functional, organism-based, Toxoplasma gondii
Parameters: scale not given: in the data most compounds retested in dose-response had high values
CONDITIONS: 50 µM
The whole screen tested about 85,000 compounds, of which about 440 (0.52%) showed an effect of 50% or more. This excerpt belongs to a sample that is enriched for strong results.

COMPOUND	UNITS OF MEASURE	Percent Effect
O=S(=O)(NC1CCCC1)C1CCOCC1	%	42.45
O=C(CN1CCN(C(=O)c2ccco2)CC1)NC1CC1	%	54.85
C[C@@H]1CN(C(=O)c2ccccc2C#N)C[C@]1(C)O	%	10.95
CC(C)(C)OC(=O)NCC1CC(N)C1 (centres undefined)	%	6.843
COCCCNC(=O)CN(C)c1ccccc1F	%	2.537
CC(=O)N1CCCCCC1C1CCNCC1 (centres undefined)	%	-20.88
O=C(c1cc(C2CC2)n[nH]1)N1CCCC(O)(CO)CC1 (centres undefined)	%	4.237
CCNC(C)(C)C(=O)N(C)Cc1ccc(OC)c(F)c1	%	94.51
OCc1ccccc1CC1CCNCC1	%	2.025
O=C1CCCCN1Cn1cnc2c(Br)cccc2c1=O	%	-5.958
CC(=O)Cc1ccn(C(C)C)n1	%	-14.04
NC(=O)c1ccc(NC(=O)CCN2CC(O)C2)cc1	%	-17.28
NC(=O)C(NC(=O)C1CC=CC1)c1ccc(F)cc1 (centres undefined)	%	-2.351
CC(C)C(NC(=O)c1ccco1)C(=O)N1CCOCC1 (centres undefined)	%	-3.141

---

PROTOCOL DETAILS: In vitro enzyme assay to detect hydrolysis of chlorophenol red-beta-D-[…] directly proportional to the number of Toxoplasma stably expressing beta-galactosidase
Type: functional, organism-based, Toxoplasma gondii
Design: scale not given: in the data most compounds retested in dose-response had high values
CONDITIONS: 10 µM
About 440 (0.52%) of roughly 85,000 compounds showed an effect of 50% or more. What follows is part of a selection rich in strong results, with near analogues and random picks from the rest.

COMPOUND	UNITS OF MEASURE	Percent Effect
Cn1ncc(C(=O)N2CCN(S(C)(=O)=O)CC2)c1Cl	%	77.51
Cc1cncc(C(=O)N2CCCCC2c2nc[nH]n2)c1 (centres undefined)	%	2.456
CCn1nc(C)c2nc(C(C)C)nc(NC)c21	%	39.93
CCc1ccc(NC(=O)C(C)Nc2cccc3c2OCCO3)cc1 (centres undefined)	%	82.59
CCN(CCNS(=O)(=O)C1CCOCC1)C(=O)OC(C)(C)C	%	6.938
Cc1oc(-c2ccoc2)nc1CN1CCCCC1CCc1ccccc1 (centres undefined)	%	-14.19
CCn1cc(NC(=O)c2cc(C)nc(N3CCOCC3)n2)cn1	%	48.82
CCN(CC)CCNc1nc(C(C)C)nc2c(C)nn(CC)c12	%	58.79
CC(C)(C)OC(=O)N(CCNS(=O)(=O)N1CCOCC1)C1CC1	%	-6.418
COc1cccc(COCC(=O)N2CCCC(n3cncn3)C2)c1 (centres undefined)	%	5.194
CCN(CC)c1nc(C)cc(C(=O)Nc2cnn(CC)c2)n1	%	-30.04
CS(=O)(=O)N1CCN(C(=O)c2cnn3c2OCCC3)CC1	%	-9.448
CN(C)C(=O)c1cc(-c2ccncc2)[nH]n1	%	-7.126
Cc1oc(C(C)C)cc1C(=O)N1CCN(c2cnn(C)c(=O)c2)CC1	%	15.5

Numbers sourced from ChEMBL document CHEMBL3988442.
